Origin of values: paper doi:10.64898/2025.12.11.693622

# system.tested: the molecule itself
# experimental.details: SEC-MALS
stoichiometry N listing for selected proteins.

| protein | stoichiometry N |
| --- | --- |
| MBP-tagged complete IMS domain of CCDC127, C144S (MBP-CC-CHB^C144S, residues 48-260) (domain or fragment, human, UniProt Q96BQ5 48-260, looked up) SQKEVEKEREAYRRRTAAFQQDLEAKYHAMISENRRAVAQLSLELEKEQNRTASYREALISQGRKLVEEKKLLEQERAQVMQEKRQVQPLRSAYLSSLQREENWQRRARLLLKEFEAVLTERQNIYCSLFLPRSKRLEIEKSLLVRASVDPVAADLEMAAGLTDIFQHDTYCGDVWNTNKRQNGRLMWLYLKYWELVVELKKFKRVEEAILEK | 2 |
| MBP-tagged C-terminal helical bundle of CCDC127, C144S variant (MBP-CHB^C144S, residues 137-260) (domain or fragment, human, UniProt Q96BQ5 137-260, looked up) LRSAYLSSLQREENWQRRARLLLKEFEAVLTERQNIYCSLFLPRSKRLEIEKSLLVRASVDPVAADLEMAAGLTDIFQHDTYCGDVWNTNKRQNGRLMWLYLKYWELVVELKKFKRVEEAILEK | 2 |
| MBP-tagged C-terminal helical bundle of CCDC127, C144S with L176S/F177S/V222S/W223S (MBP-CHB^C144STip, residues 137-260) (domain or fragment, human, UniProt Q96BQ5 137-260, looked up) LRSAYLSSLQREENWQRRARLLLKEFEAVLTERQNIYCSSSLPRSKRLEIEKSLLVRASVDPVAADLEMAAGLTDIFQHDTYCGDSSNTNKRQNGRLMWLYLKYWELVVELKKFKRVEEAILEK | 2 |
